Molecular target: T1, cynomolgus PD-1-his protein (Cat#:PD1-05223, Acro biosystems Inc.) (cynomolgus, UniProt B0LAJ3 25-170)
T1 construct: Bought protein used in Biacore and indirect ELISA; also called monkey PD-1; Cyno PD-1
T1 sequence (B0LAJ3 entry or part of it limits assumed): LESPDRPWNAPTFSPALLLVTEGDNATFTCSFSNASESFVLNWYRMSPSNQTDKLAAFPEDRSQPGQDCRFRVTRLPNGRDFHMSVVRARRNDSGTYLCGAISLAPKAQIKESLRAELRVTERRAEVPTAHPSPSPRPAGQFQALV
Experiment: indirect ELISA on coated cynomolgus PD-1-his
Readings of pEC50 for the listed binders
// pEC50 is dimensionless: -log10 of concentration (M)

Problem: Kindly indicate its recorded pEC50. Item: humanized antibody huE1A9C8A7-V8 (antibody, human IgG4 S228P, kappa, V domains shown, Human IgG4/kappa) VH: QVQLVQSGAEVVKPGASVKISCKASGYTFTDYVMHWVRQAPGQSLEWMGVISTYHIPAVYNQKFKGKATMTVDTSTSTVYLELSSLRSEDTAVYYCAREVYGDSYYFDVWGQGTTVTVSS VL: DIVMTQTPLSLPVTPGEPASISCRSSQSIVHSNGNTYLEWYLQKPGQSPQLLIYKVSNRFSGVPDRFSGSGSGTDFTLKISRVEAEDVGVYYCFQGSHVPYTFGGGTKVEIKR
Solution: 9.09

Next:
Problem: Kindly indicate its recorded pEC50. Item: Pembrolizumab (antibody, V domains shown) VH: QVQLVQSGVEVKKPGASVKVSCKASGYTFTNYYMYWVRQAPGQGLEWMGGINPSNGGTNFNEKFKNRVTLTTDSSTTTAYMELKSLQFDDTAVYYCARRDYRFDMGFDYWGQGTTVTVSS VL: EIVLTQSPATLSLSPGERATLSCRASKGVSTSGYSYLHWYQQKPGQAPRLLIYLASYLESGVPARFSGSGSGTDFTLTISSLEPEDFAVYYCQHSRDLPLTFGGGTKVEIKR
Solution: 9.70

Problem: Kindly indicate its recorded pEC50. Item: mouse anti-PD-1 monoclonal antibody E1A9C8A7 (antibody, V domains shown, Hybridoma-derived mouse mAb purified on Protein A; also called Mouse E1A9C8A7) VH: QVQLQQSGAEVVRPGVSVRISCKGSGYTFSDYVMHWMKQSHGESLEWIGVISTYHIPAVYNQKFKGKATMTVDKSSSTVYLELARLTSEDSAIYYCAREVYGDSYYFDVWGAGTTVTVSS VL: DVLMTQIPLSLPVSLGDQVSISCRSSQSIVHSNGNTYLEWYLQKPGQSPKLLIYKVSNRFSGVPDRFSGSGSGTDFTLKISRVEAEDLGVYYCFQGSHVPYTFGGGTKLEIK
Solution: 10.15

Problem: Kindly indicate its recorded pEC50. Item: Chimeric E1A9C8A7 antibody (antibody, human IgG4 S228P, kappa, V domains shown, also called chimeric antibody E1A9C8A7) VH: QVQLQQSGAEVVRPGVSVRISCKGSGYTFSDYVMHWMKQSHGESLEWIGVISTYHIPAVYNQKFKGKATMTVDKSSSTVYLELARLTSEDSAIYYCAREVYGDSYYFDVWGAGTTVTVSS VL: DVLMTQIPLSLPVSLGDQVSISCRSSQSIVHSNGNTYLEWYLQKPGQSPKLLIYKVSNRFSGVPDRFSGSGSGTDFTLKISRVEAEDLGVYYCFQGSHVPYTFGGGTKLEIKR
Solution: 9.07

Problem: Kindly indicate its recorded pEC50. Item: Nivolumab (antibody, V domains shown) VH: QVQLVESGGGVVQPGRSLRLDCKASGITFSNSGMHWVRQAPGKGLEWVAVIWYDGSKRYYADSVKGRFTISRDNSKNTLFLQMNSLRAEDTAVYYCATNDDYWGQGTLVTVSS VL: EIVLTQSPATLSLSPGERATLSCRASQSVSSYLAWYQQKPGQAPRLLIYDASNRATGIPARFSGSGSGTDFTLTISSLEPEDFAVYYCQQSSNWPRTFGQGTKVEIK
Solution: 9.64
